# System: DU-145
# Test description: Cytotoxicity against human DU145 cells assessed as growth inhibition at 10 uM after 48 hrs by SRB assay
# Format: functional, cell-based
The source made the active and inactive calls. The rule behind the calls is not given here.
Outcome codes: T (active), F (inactive)

CC1(C)OB(c2ccc(N(CCCl)CCCl)cc2)OC1(C)C	T
CC1(C)OB(c2ccc(N(CCCl)CCOS(C)(=O)=O)cc2)OC1(C)C	T
CC1(C)OB(c2ccc(N(CCCl)CCBr)cc2)OC1(C)C	T
CC1(C)OB(c2ccc(N(CCBr)CCBr)cc2)OC1(C)C	T
CC1(C)OB(c2ccc(N(CCBr)CCOS(C)(=O)=O)cc2)OC1(C)C	T
CC1(C)OB(c2ccc(COC(=O)N(CCCl)CCCl)cc2)OC1(C)C	F
